Test system: Bacillus subtilis
Experiment: cleaved RNA product abundance (RNA/gDNA barcode ratio) relative to median wild-type variant (ratio to wild type); higher = more accumulation of the downstream cleavage product
Conditions: experiment (reporter, strain, medium): exp 8a: truncated aprE reporter, strain BJT201 with 2% xylose (RNase J1 expressed); cleavage site: glnRA (positions -5 to +31 mutated)
Parameter class (string): assigned from measured cleaved RNA product abundance. Ranges: low: < 0.3; medium: ≥ 0.3 and < 0.8; high: ≥ 0.8

1. CGACATGTCCCGCTTCTTTCATTAATCCGTTAGCAACTGTTTTGCTATATGCATTTACCTTTTAAGAGGAGGAAT ... low
2. CGACATGTCCCGCTTCTTTCATTAATCCGTTACCAACTGTTTTGCCATATACATTTACCTTTTAAGAGGAGGAAT ... low
3. CGACATGTCCCGCTTCTTTCATTAATCCGTAAGCAACTGTTTTCCTATATACATTTACCTTTTAAGAGGAGGAAT ... medium

Prompt line: Which of the defined bands does the recorded cleaved RNA product abundance of CGACATGTCCCGCTTCTTTCATTATTCAGTTAGCAACTGTTTTGCTATATACATTTACCTTTTAAGAGGAGGAAT sit within?
Response line: high

Prompt line: Same thing, different sequence: CGACATGTCCCGCTTCTTTCATTAATCAGTTAGCATCTGTTTTGCTATATACATTTACCTTTTAAGAGGAGGAAT
Response line: medium

Prompt line: Same thing, different sequence: CGACATGTCCCGCTTCTTTCATTAATCCGTTAGCAATGGTTTTGCTATATACATTTACCTTTTAAGAGGAGGAAT
Response line: high

Origin of values: the supplement of paper PMC11780869
